system: SNB-19 (CNS cancer); test: NCI-60 screen (SRB, 48 h); settings: Homo sapiens, SNB-19
# reported GI50; entries follow
Express it in nM; write the number only.

compound structure string: CC(C)=C1CCC=C2CC[C@]3(C)[C@H](CC[C@@H]4[C@@]5(C)CCCNC(C)(C)[C@@H]5CC[C@]43C)[C@H]21
output unit: nM
GI50: 1810

compound structure string: CC1(C)CC[C@]23CC[C@]4(C)[C@H](CC[C@@H]5[C@@]6(C)CCCNC(C)(C)[C@@H]6CC[C@]54C)[C@H]2[C@H]1OC3
output unit: nM
GI50: 1850

compound structure string: Cc1ccc(S(=O)(=O)OC[C@@]2(C)CC[C@]3(C)CC[C@]4(C)C(=C3C2)C=C[C@@H]2[C@@]3(C)CCCNC(C)(C)[C@@H]3CC[C@]24C)cc1
output unit: nM
GI50: 1910

compound structure string: C[C@H]1[C@H](C)CC[C@]2(C(=O)Nc3ccc4ncccc4c3)CC[C@]3(C)C(=CC[C@@H]4[C@@]5(C)CCCNC(C)(C)[C@@H]5CC[C@]43C)[C@H]12
output unit: nM
GI50: 1850

compound structure string: C=C(C)[C@@H]1CC[C@]2(COS(=O)(=O)c3ccc(C)cc3)CC[C@]3(C)[C@@H](CC[C@@H]4[C@@]5(C)CCCNC(C)(C)[C@@H]5CC[C@]43C)[C@@H]12
output unit: nM
GI50: 2040

compound structure string: CC1(C)NCCC[C@]2(C)[C@H]3C=CC4=C5C[C@@](C)(CO)CC[C@]5(C)CC[C@@]4(C)[C@]3(C)CC[C@@H]12
output unit: nM
GI50: 11600

compound structure string: CC1(C)CC[C@]2(CO)CC[C@]3(C)C(=CC[C@@H]4[C@@]5(C)CCCNC(C)(C)[C@@H]5CC[C@]43C)[C@@H]2C1
output unit: nM
GI50: 11700

Next, consider the following compound.
Form: Entry = C[C@H]1[C@H](C)CC[C@]2(CO)CC[C@]3(C)C(=CC[C@@H]4[C@@]5(C)CCCNC(C)(C)[C@@H]5CC[C@]43C)[C@H]12 | System = SNB-19 (CNS cancer) | GI50 = ____
1860
